# MEASURED ON: PIK3CG (human) (UniProt P48736)
# Sequence (P48736 whole entry, looked up): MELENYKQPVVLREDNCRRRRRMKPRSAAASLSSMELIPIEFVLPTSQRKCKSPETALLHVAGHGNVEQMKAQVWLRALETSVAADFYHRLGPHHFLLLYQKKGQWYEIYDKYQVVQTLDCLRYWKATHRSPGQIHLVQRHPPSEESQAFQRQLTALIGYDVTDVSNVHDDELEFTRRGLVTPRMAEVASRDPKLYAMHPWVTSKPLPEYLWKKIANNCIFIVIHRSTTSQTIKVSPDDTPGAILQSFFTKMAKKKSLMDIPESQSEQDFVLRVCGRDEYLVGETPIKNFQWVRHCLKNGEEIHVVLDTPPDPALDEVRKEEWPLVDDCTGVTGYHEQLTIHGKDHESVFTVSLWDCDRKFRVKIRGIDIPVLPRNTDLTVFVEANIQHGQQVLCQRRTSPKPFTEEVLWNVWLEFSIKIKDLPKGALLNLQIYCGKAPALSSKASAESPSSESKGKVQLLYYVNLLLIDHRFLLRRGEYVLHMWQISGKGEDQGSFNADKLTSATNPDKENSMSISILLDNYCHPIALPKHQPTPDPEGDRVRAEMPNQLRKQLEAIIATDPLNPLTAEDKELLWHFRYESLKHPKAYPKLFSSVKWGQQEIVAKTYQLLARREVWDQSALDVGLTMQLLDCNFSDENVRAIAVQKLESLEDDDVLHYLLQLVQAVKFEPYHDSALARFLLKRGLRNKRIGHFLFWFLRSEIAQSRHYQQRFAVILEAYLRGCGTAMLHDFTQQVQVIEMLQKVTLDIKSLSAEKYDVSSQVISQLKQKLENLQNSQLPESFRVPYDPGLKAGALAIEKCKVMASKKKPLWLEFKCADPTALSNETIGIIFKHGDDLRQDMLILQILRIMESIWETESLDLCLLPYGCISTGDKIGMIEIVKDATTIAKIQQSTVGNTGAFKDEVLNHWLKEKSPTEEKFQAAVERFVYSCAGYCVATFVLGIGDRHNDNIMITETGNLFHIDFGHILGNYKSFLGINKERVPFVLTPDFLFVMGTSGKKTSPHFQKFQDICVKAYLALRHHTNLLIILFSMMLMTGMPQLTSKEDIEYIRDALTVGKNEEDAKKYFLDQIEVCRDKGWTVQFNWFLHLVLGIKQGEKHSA
MEASURE: IC50 (µM)
# number only, unit µM dropped from output

Here is how some molecules turned out for IC50.
N#Cc1n[nH]c2ncnc(N3CCC[C@H]3c3nn4cccc4c(=O)n3-c3ccccc3)c12
0.231
C[C@H]1CN(c2nc(N)nc3c2C(=O)CCN3)[C@@H]1c1nn2ccc(Cl)c2c(=O)n1-c1ccccn1
0.018
Nc1nc(N2CCC[C@H]2c2nn3cccc3c(=O)n2-c2ccccc2)c2nc[nH]c2n1
0.04

From here, focus on the item given below.
Which measured IC50 belongs to O=c1c2c(Br)ccn2nc([C@@H]2CCN2c2ncnc3[nH]cnc23)n1-c1ccccc1 , tested on PIK3CG (human) (UniProt P48736)? 0.287
